assayed-system: Tubulin (Homo sapiens) (UniProt P68371+Q9H4B7+P0DPH7+P68366+Q13509+Q71U36+P04350+Q3ZCM7+P07437+P68363+Q9BQE3+Q6PEY2+Q13885+Q9BVA1+Q9BUF5)
protocol-description: Inhibition of [3H]colchicine binding to tubulin (unknown origin) at 5 uM incubated for 10 mins by DEAE-cellulose filter method relative to control
Format: protein-complex assay
measurement-kind: inhibition (%)

Below, each entry is followed by its recorded inhibition result.
query-smiles: COc1cc(C(=O)c2cn(-c3cccc(N)c3)cc2-c2ccccc2Cl)cc(OC)c1OC
unit-abbreviation: %
val: 79
//
query-smiles: COc1cc(C(=O)c2cn(-c3ccc(F)cc3)cc2-c2ccc(N)cc2)cc(OC)c1OC
unit-abbreviation: %
val: 90
//
query-smiles: COc1cc(C(=O)c2cn(-c3cccc(N)c3)cc2-c2ccccc2F)cc(OC)c1OC
unit-abbreviation: %
val: 90
//
query-smiles: COc1cc(C(=O)c2cn(-c3ccc(N)cc3)cc2-c2ccccc2)cc(OC)c1OC
unit-abbreviation: %
val: 67
//
query-smiles: COc1cc(C(=O)c2cn(-c3ccc(N)cc3)cc2-c2ccc([N+](=O)[O-])cc2)cc(OC)c1OC
unit-abbreviation: %
val: 23

[P] COc1cc(C(=O)c2cn(-c3ccc([N+](=O)[O-])cc3)cc2-c2ccccc2)cc(OC)c1OC
[Q] COc1cc(C(=O)c2cn(-c3ccc(C)cc3)cc2-c2ccccc2F)cc(OC)c1OC
[R] COc1cc(C(=O)c2cn(-c3ccc(F)cc3)cc2-c2cccc([N+](=O)[O-])c2)cc(OC)c1OC
Ask | rank_up(items): orders items by reported inhibition in ascending numerical order. To answer, write out the labels according to the requested order.
Reply | R, P, Q

----------
IC50 values by entry
Tested on: T98G
protocol-description: Cytotoxicity against human T98G cells assessed as reduction in cell viability incubated for 48 hrs by MTS assay
Format: functional, cell-based

Below, each entry is followed by its recorded IC50 result.
query-smiles: COc1cc(C(=O)c2cn(-c3cccc(N)c3)cc2-c2ccccc2[N+](=O)[O-])cc(OC)c1OC
IC50: 34.6 to 35 nM
--
query-smiles: COc1cc(C(=O)c2cn(-c3cccc(N)c3)cc2-c2ccccc2F)cc(OC)c1OC
IC50: 54 to 54.4 nM
--
query-smiles: COc1cc(C(=O)c2cn(-c3ccc(F)cc3)cc2-c2ccc(N)cc2)cc(OC)c1OC
IC50: 21.8 to 22 nM
--
query-smiles: COc1cc(C(=O)c2cn(-c3cccc(N)c3)cc2-c2ccc(N)cc2)cc(OC)c1OC
IC50: 36.6 to 37 nM

Moving on to another compound below.
Ask | Consider the compound shown here: "COc1cc(C(=O)c2cn(-c3ccc(N)cc3)cc2-c2ccc(N)cc2)cc(OC)c1OC" What is its recorded IC50?
Reply | 24 to 24.3 nM

----------
Test system: KBM5
protocol-description: Cytotoxicity against human KBM5 cells expressing IM-resistant Bcr/Abl T315I mutant assessed as reduction in cell viability incubated for 48 hrs by MTT assay
Type: functional, cell-based
experimental-setup: KBM5, 48 h
measurement-kind: pIC50
Remember the convention: pIC50 equals -log10 of concentration in molar.

Below, each entry is followed by its recorded pIC50 result.
query-smiles: COc1cc(C(=O)c2cn(-c3ccc(F)cc3)cc2-c2ccc(N)cc2)cc(OC)c1OC
pIC50: 7.59
//
query-smiles: Cc1cn(-c2cc(NC(=O)c3ccc(C)c(Nc4nccc(-c5cccnc5)n4)c3)cc(C(F)(F)F)c2)cn1
pIC50: 5.62
//
query-smiles: COc1cc(C(=O)c2cn(-c3cccc(N)c3)cc2-c2ccccc2[N+](=O)[O-])cc(OC)c1OC
pIC50: 7.68

Ask | Consider the compound shown here: "COc1cc(C(=O)c2cn(-c3cccc(N)c3)cc2-c2ccc(N)cc2)cc(OC)c1OC" What is its recorded pIC50?
Reply | 7.80

Ask | Consider the compound shown here: "COc1cc(C(=O)c2cn(-c3ccc(N)cc3)cc2-c2ccc(N)cc2)cc(OC)c1OC" What is its recorded pIC50?
Reply | 7.92

Ask | Consider the compound shown here: "COc1cc(C(=O)c2cn(-c3cccc(N)c3)cc2-c2ccccc2F)cc(OC)c1OC" What is its recorded pIC50?
Reply | 7.66
